test system: MDA-N; experiment: Cytotoxicity against human breast MDA-N cell line; format: functional
reported_metric: GI50 (µM)
Write it as a number; the unit µM goes unstated.

Sample answers from the record:
compound | target_under_test | GI50, µM
COc1ccc(-c2csc3c2-n2cccc2C3=O)cc1 | MDA-N | 0.0126
O=C1c2scc(-c3ccccc3)c2-n2cccc21 | MDA-N | 15.8
O=C1c2scc(-c3ccc(Cl)cc3)c2-n2cccc21 | MDA-N | 7.94

Below: the item to evaluate.
Tell me the measured GI50 of O=C1c2scc(-c3ccc(F)cc3)c2-n2cccc21 , please.
7.94

====

# maps each entry to its GI50
test system: PC-3; assay: Cytotoxicity against human prostate PC-3 cell line; type: functional
API: value field is a number in µM; no unit string.

compound | GI50, µM
O=C1c2scc(-c3ccc(F)cc3)c2-n2cccc21 | 31.6

For PC-3, provide GI50 of O=C1c2scc(-c3ccccc3)c2-n2cccc21 please.
12.6

Request: GI50, test system PC-3, entry O=C1c2scc(-c3ccc(Cl)cc3)c2-n2cccc21
100

Return GI50 measured with PC-3 given this compound: COc1ccc(-c2csc3c2-n2cccc2C3=O)cc1
0.0398

// data source = ChEMBL document CHEMBL1149098
